Where do these numbers come from? They come from patent US10316017B2.

Hi there, I'd appreciate the recorded IC50 for every entry that follows.
- study-target: human Cot catalytic domain (30-397 amino acids) (Homo sapiens)
- Construct: Purified recombinant human Cot catalytic domain (30-397 amino acids) was purchased from Cama Biosciences; purchased Cama Biosciences (so in the source)
- Sequence (P41279 30-397): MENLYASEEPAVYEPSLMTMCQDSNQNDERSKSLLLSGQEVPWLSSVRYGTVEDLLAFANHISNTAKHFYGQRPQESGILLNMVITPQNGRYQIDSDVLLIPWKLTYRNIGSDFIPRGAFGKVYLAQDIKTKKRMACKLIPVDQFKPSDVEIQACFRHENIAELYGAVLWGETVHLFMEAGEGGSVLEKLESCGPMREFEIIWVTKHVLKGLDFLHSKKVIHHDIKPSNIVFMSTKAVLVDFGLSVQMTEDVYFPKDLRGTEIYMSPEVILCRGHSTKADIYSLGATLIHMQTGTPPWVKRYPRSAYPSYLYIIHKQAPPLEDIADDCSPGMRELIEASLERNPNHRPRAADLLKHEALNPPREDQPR
- protocol-details: High Throughput Cot Biochemical Assay (KinEASE TR-FRET)
- condition-notes: Cot KinEASE TR-FRET, 400 μM ATP; read-out: IC50 HTRF
Give just the number in nM; leave the unit off.

Item: [2H][C@@](Nc1cc(Cl)c2ncc(C#N)c(NCC(C)(C)C)c2c1)(c1cn(C2(c3cccnc3)CC2)nn1)c1ccccc1Cl | IC50: 12

Looking up [2H][C@](Nc1cc(Cl)c2ncc(C#N)c(Nc3cccc(Cl)c3)c2c1)(c1ccc(F)cc1)c1cn(C2CC2)nn1 , I found its IC50 recorded as 14

Record N#Cc1cnc2c(Cl)cc(NC(c3ccc(F)cc3)c3cn(C4CCOCC4)nn3)cc2c1Nc1ccc(F)c(Cl)c1 (stereo not shown) , field IC50: 58

Summary for this molecule, Cc1c(C#N)cccc1[C@H](Nc1cc(C#N)c2ncc(C#N)c(NCC(C)(C)C(F)(F)F)c2c1)c1cn(C2(C(F)F)CC2)nn1 [Example 1126] : IC50 is 5

Note to self: IC50 recorded for Cc1c([C@H](Nc2cc(C#N)c3ncc(C#N)c(NCC(C)(C)C)c3c2)c2cn(C3(C(F)(F)F)CC3)nn2)cccc1-n1nccn1 was 8

For reference, reported IC50 for CC(C)(C)CNc1c(C#N)cnc2c(Cl)cc(N[C@@H](c3ccc(F)cc3)c3cn(C4(c5ccccn5)CC4)nn3)cc12 stands at 34

So, Cc1c(C#N)cccc1[C@H](Nc1cc(Cl)c2ncc(C#N)c(NCC(C)(C)C(F)(F)F)c2c1)c1cn(C23CC(C2)C3)nn1 ? Its IC50 was 3

Query Cc1c(C#N)cccc1[C@H](Nc1cc(C#N)c2ncc(C#N)c(NCC(C)(C)C)c2c1)c1cn(C23CC(C2)C3)nn1 yields IC50 of 1

Lookup result for CC(C)(C)CNc1c(C#N)cnc2c(C#N)cc(N[C@@H](c3ccc(F)cc3)c3cn(C4(c5cccnc5)CC4)nn3)cc12 ; measured IC50: 46

Record summary for COc1cc2ncc(C#N)c(Nc3ccc(F)c(Cl)c3)c2cc1NC(c1ccc(F)cc1)c1cn(C)nn1 (stereo not shown) : reported IC50 = 7920

// sample Cc1c(-c2ccncc2)cccc1[C@H](Nc1cc(C#N)c2ncc(C#N)c(NCC(C)(C)C)c2c1)c1cn(C2(C(F)F)CC2)nn1 , its IC50 was 2

Notebook: Cc1c(C#N)cccc1[C@H](Nc1cc(C#N)c2ncc(C#N)c(NCC(C)(C)C(F)(F)F)c2c1)c1cn(C2(C3CC3)CC2)nn1 , IC50 read as 3

Record summary for Cc1c(-c2cn[nH]c2)cccc1[C@H](Nc1cc(Cl)c2ncc(C#N)c(NCC(C)(C)C)c2c1)c1cn(C2(C(F)(F)F)CC2)nn1 : reported IC50 = 13

IC50 reading for Cc1c([C@H](Nc2cc(C#N)c3ncc(C#N)c(NCC(C)(C)C)c3c2)c2cn(C3(C(F)(F)F)CC3)nn2)cccc1-n1cccn1 : 5

The molecule Cc1ccc(C(Nc2cc(Cl)c3ncc(C#N)c(Nc4ccc(F)c(Cl)c4)c3c2)c2cn(C3CCNCC3)nn2)cc1 (stereo not shown) showed IC50 equal to 48

Value of measured IC50 for the entry CC(C)(C)CNc1c(C#N)cnc2c(Cl)cc(N[C@@H](c3ccccc3)c3cn(C4(C(F)(F)F)CC4)nn3)cc12 : 75

// CC(C)(C)CNc1c(C#N)cnc2c(C#N)cc(N[C@@H](c3ccc(F)cc3)c3cn(C4(C)CC4)nn3)cc12 : IC50 value = 5

In plain terms, Cc1c(-c2ccn(C)n2)cccc1[C@H](Nc1cc(C#N)c2ncc(C#N)c(NCC(C)(C)C)c2c1)c1cn(C2(C(F)(F)F)CC2)nn1 has a documented IC50 of 7

For record CCN1CCC(n2cc(C(Nc3cc(Cl)c4ncc(C#N)c(Nc5ccc(F)c(Cl)c5)c4c3)c3ccc(F)cc3)nn2)CC1(C)C (stereo not shown) the listed IC50 is 32

// field: IC50; key: [2H][C@](Nc1cc(Cl)c2ncc(C#N)c(N[C@H](CC)c3ccccc3)c2c1)(c1ccc(F)cc1)c1cn(C2(C(F)F)CC2)nn1 ; value = 17

molecule Cc1c([C@H](Nc2cc(C#N)c3ncc(C#N)c(NCC(C)(C)C)c3c2)c2cn(C3(C(F)(F)F)CC3)nn2)cccc1-n1ccnn1 , IC50 observed: 3

Entry under test: CC(C)(C)N1CCC(n2cc([C@@H](Nc3cc(Cl)c4ncc(C#N)c(Nc5cccc(-n6nccn6)c5)c4c3)c3ccccc3)nn2)CC1 . Its IC50 was 782

Query Cc1c(-c2cnn(C)c2)cccc1[C@H](Nc1cc(C#N)c2ncc(C#N)c(NCC(C)(C)C)c2c1)c1cn(C2(C(F)(F)F)CC2)nn1 yields IC50 of 4
